Source of measurements: ChEMBL document CHEMBL3507680

experiment: Human HepG2 cell viability assay in 384 well format; assay type: toxicity, cell-based; set-up: dose 125 nL, time 70.5 hour; concentration not given beside the values; settings: HepG2 cells, read-out: Inhibition
Quantity: cytotoxicity at 70.5 h (%)
Unit % implied. Number only.

Q: What value of cytotoxicity at 70.5 h has been recorded for this entry: O=C(CCc1cccs1)N1CCc2[nH]nc(COc3ccccc3)c2C1
Result: 2.22

Q: What value of cytotoxicity at 70.5 h has been recorded for this entry: Cc1ccc(-c2nc(CN3CCn4c(nnc4C4CC4)C3)co2)cc1
Result: -5.93

Q: What value of cytotoxicity at 70.5 h has been recorded for this entry: CNc1cc(C)nc(N2CCC3(CC2)[C@H](O)C[C@@H]3OCCO)n1
Result: -4.12

Q: What value of cytotoxicity at 70.5 h has been recorded for this entry: CCN1CC(C(=O)N2CC(Oc3ccccc3Cl)C2)CCC1=O (stereo unspecified)
Result: -1.72

Q: What value of cytotoxicity at 70.5 h has been recorded for this entry: O=S(=O)(c1ccc(F)cc1)N1CC[C@H]2[C@H]1CCN2c1ncccn1
Result: -2.97

Q: What value of cytotoxicity at 70.5 h has been recorded for this entry: CCN1C[C@@H]2[C@@H](OC)CCN(C(=O)Cc3ccsc3)[C@@H]2C1
Result: -5.4

Q: What value of cytotoxicity at 70.5 h has been recorded for this entry: O=S(=O)(N1CCOCC1)N1CCCC(c2ccccn2)C1 (stereo unspecified)
Result: -8.61

Q: What value of cytotoxicity at 70.5 h has been recorded for this entry: CC(C)(C)c1nc(CN2CCCC2Cn2cccn2)no1 (stereo unspecified)
Result: 12.2

Q: What value of cytotoxicity at 70.5 h has been recorded for this entry: O=C(COCC(F)(F)F)NS(=O)(=O)c1ccc2c(c1)OCCCO2
Result: -6.81

Q: What value of cytotoxicity at 70.5 h has been recorded for this entry: CCc1ccc(C(=O)Nc2ccc(CC3CC(=O)NC3=O)cc2)cc1 (stereo unspecified)
Result: 1.34

Q: What value of cytotoxicity at 70.5 h has been recorded for this entry: O=C1CCC(=O)N1CCN1CCOC(c2ccsc2)C1 (stereo unspecified)
Result: 3.03

---

Each entry below lists one item and its recorded cytotoxicity at 70.5 h value.
assay: Human HepG2 cell viability assay in 384 well format; type: toxicity, cell-based; parameters: dose 125 nL, time 70.5 hour; concentration not given beside the values; conditions: HepG2 cells, read-out: Inhibition
Unit % implied. Number only.

Known cytotoxicity at 70.5 h results, listed for orientation:
CCn1cc(CN2CCN(C(=O)N3CCOCC3)CC2)cn1 : 16.2
O=C(Cc1ccccn1)N1C[C@@H]2CC[C@H](C1)N(Cc1ccccc1)C2=O : 6.93
O=C(CCc1nc(-c2cccnc2)no1)N(CC1CCOC1)C1CC1 (configuration not stated) : 12
Cc1nc(CN2C(=O)C[C@@H]3[C@@H]2CCN3CC2CCOCC2)cs1 : 23.6
CC(Cn1cccn1)NC(=O)Nc1ccc(F)cc1 (configuration not stated) : -4.1

Q: What value of cytotoxicity at 70.5 h has been recorded for this entry: COc1cc(NC(=O)NCc2ccccn2)cc(OC)c1
Result: 8.5

Q: What value of cytotoxicity at 70.5 h has been recorded for this entry: COC(=O)CCNC(=O)c1c[nH]cc1-c1cccc(OC)c1
Result: 3.36

Q: What value of cytotoxicity at 70.5 h has been recorded for this entry: O=C(NCCc1ccncc1)c1cccc(S(=O)(=O)NC2CCOC2)c1 (configuration not stated)
Result: 5.63

Q: What value of cytotoxicity at 70.5 h has been recorded for this entry: c1cncc(O[C@H]2COCCN(CC3CC3)C2)c1
Result: 0.0943

---

assay: Human HepG2 cell viability assay in 384 well format; type: toxicity, cell-based; parameters: dose 125 nL, time 70.5 hour; concentration not given beside the values; conditions: HepG2 cells, read-out: Inhibition
Quantity: cytotoxicity at 70.5 h (%)
Unit % implied. Number only.

Known cytotoxicity at 70.5 h results, listed for orientation:
CN1CCN(c2ccc(NC(=O)c3ccccn3)c(C(F)(F)F)c2)CC1 : -5.99
COc1cc(NC(=O)NC2CC2)ccc1N1CCOC1=O : -8.49
O=C(CCn1cncn1)Nc1ccc(F)cc1OCC1CC1 : -9.3
CCc1noc(C2CC(=O)N(CCN(C)C)C2)n1 (stereo not given) : -3.23
O=C(CCNC(=O)c1sccc1-c1ccccc1)NC1CCS(=O)(=O)C1 (stereo not given) : -9.28

Q: What value of cytotoxicity at 70.5 h has been recorded for this entry: Cc1nn(C)c(C)c1C1CCCN1Cc1cccc(C(N)=O)c1 (stereo not given)
Result: 4

Q: What value of cytotoxicity at 70.5 h has been recorded for this entry: CCCN1CCC(CC(=O)NCc2cc(C)nn2C)CC1
Result: -7.34

Q: What value of cytotoxicity at 70.5 h has been recorded for this entry: Cc1cncc(NCc2ccccc2N2CCOCC2)c1
Result: 3.08

Q: What value of cytotoxicity at 70.5 h has been recorded for this entry: CCCn1nnc(NCc2ccccc2OCc2ccc(Cl)cc2)n1
Result: -7.74

---

Each entry below lists one item and its recorded cytotoxicity at 70.5 h value.
test: Human HepG2 cell viability assay in 384 well format; assay type: toxicity, cell-based; parameters: dose 125 nL, time 70.5 hour; concentration not given beside the values; conditions: HepG2 cells, read-out: Inhibition
Unit % implied. Number only.

Q: What value of cytotoxicity at 70.5 h has been recorded for this entry: Cc1nn(C)c(C)c1OCC(=O)N1CCCC1
Result: -6

---

test: Human HepG2 cell viability assay in 384 well format; assay type: toxicity, cell-based; set-up: dose 125 nL, time 70.5 hour; concentration not given beside the values; conditions: HepG2 cells, read-out: Inhibition
Threshold -10%. cytotoxicity at 70.5 h below it: Condition met. cytotoxicity at 70.5 h at it or above: Condition not met.

Please review the following examples before continuing.
CN(Cc1ccccc1Cl)C(=O)c1cc(CN2CCC(O)CC2)on1 : Condition met
Cc1noc(C(C)C)c1C(=O)NCCN1CCOCC1 : Condition met
CNC(=O)Cc1noc(-c2cc3c(s2)CCC(C)C3)n1 (stereo not given) : Condition not met
c1cnn(CC2CN(c3ncnc4[nH]ccc34)CCO2)c1 (stereo not given) : Condition not met
NC(=O)C(NCc1ccc(Cl)s1)c1ccccc1 (stereo not given) : Condition not met

Q: State whether -10% exceeds cytotoxicity at 70.5 h recorded for CC[C@H](Cn1ncc2ccccc2c1=O)NC(=O)c1cnc(C)cn1 .
Result: Condition met

Q: State whether -10% exceeds cytotoxicity at 70.5 h recorded for Cc1nc2c(N3CCN(Cc4ccccc4)CC3)nc(N)nc2n1C .
Result: Condition not met

Q: State whether -10% exceeds cytotoxicity at 70.5 h recorded for Cc1ccc(CN2CCOC3(CCN(C(=O)N4CCCC4)CC3)C2)cc1 .
Result: Condition not met

Q: State whether -10% exceeds cytotoxicity at 70.5 h recorded for CN(C)C[C@@H]1CN(C(=O)CCC2CCCC2)C[C@@H]1CO .
Result: Condition not met

---

experiment: Human HepG2 cell viability assay in 384 well format; assay type: toxicity, cell-based; set-up: dose 125 nL, time 70.5 hour; concentration not given beside the values; conditions: HepG2 cells, read-out: Inhibition
Quantity: cytotoxicity at 70.5 h (%)
Unit % implied. Number only.

Q: What value of cytotoxicity at 70.5 h has been recorded for this entry: O=S(=O)(c1cccs1)N1Cc2nc(CN3CCCC3)oc2C1
Result: -6.48

Q: What value of cytotoxicity at 70.5 h has been recorded for this entry: O=C(NCCCn1cncn1)NCC(c1ccccc1)N1CCCC1 (stereo not given)
Result: 0.00173

Q: What value of cytotoxicity at 70.5 h has been recorded for this entry: Cc1cc(C(=O)NC2(c3ccc(Br)cc3)CC2)n(C)n1
Result: 6.63

Q: What value of cytotoxicity at 70.5 h has been recorded for this entry: Cc1ccc(C(=O)NS(=O)(=O)c2cc(Br)ccc2C)c(=O)[nH]1
Result: -7.4

Q: What value of cytotoxicity at 70.5 h has been recorded for this entry: COc1ncccc1CNC1CCc2c(ccc(=O)n2CC2CC2)C1 (stereo not given)
Result: -8.76

Q: What value of cytotoxicity at 70.5 h has been recorded for this entry: CCc1n[nH]c(C2CN(C(=O)COCC(F)(F)F)CCO2)n1 (stereo not given)
Result: -10.6

Q: What value of cytotoxicity at 70.5 h has been recorded for this entry: CS(=O)(=O)NC1CCCN(C(=O)Nc2cccnc2)C1 (stereo not given)
Result: 25.1

Q: What value of cytotoxicity at 70.5 h has been recorded for this entry: Cc1ccc(-c2nnc(CN3CCc4cnc(C)nc4C3)o2)cc1
Result: 3.5

Q: What value of cytotoxicity at 70.5 h has been recorded for this entry: Cc1cc(C)c2[nH]c(=O)c(CN3CCCC(O)(CO)C3)cc2c1 (stereo not given)
Result: -13.5

Q: What value of cytotoxicity at 70.5 h has been recorded for this entry: Cc1ccc2c(c1)Oc1ncccc1C(=O)N2
Result: -0.446
